Reference source: patent US4797417A

Exercise: for every item that follows, state its recorded log10 IC50.
- TEST_TARGET: aldose reductase (Oryctolagus cuniculus)
- Construct: The lenses were homogenized with 3 volumes of distilled water at 4° C; from tissue; host or cells: rabbit lens (homogenate, 10,000 G supernatant, dialysed)
- PROCEDURE_SUMMARY: Aldose reductase-inhibiting activity, enzymatic assay (decrease in NADPH, D,L-glyceraldehyde substrate, rabbit lens enzyme solution)
- Format: biochemical
- ASSAY_CONDITIONS: concentration at which the aldose reductase activity is inhibited by 50%, pH 6.2, 35° C., 2 minutes, read-out: IC50
Scale type: logarithmic (base 10). Underlying IC50 unit: µM.

Answered cases to consult:
| MOLECULE | ENDPOINT | VALUE_OBSERVED |
| --- | --- | --- |
| CCOC(=O)CCC1OC(=O)C(OC)=C1c1ccccc1 (centres unmarked) | log10 IC50 | -0.66 |
| O=C(O)CCC1OC(=O)C=C1c1ccccc1 (centres unmarked) | log10 IC50 | -0.27 |
| O=C(O)CCC1OC(=O)C(O)=C1c1ccccc1 (single isomer, unassigned) [Example 30-3] | log10 IC50 | -0.27 |
| COC1=C(c2ccc(Cl)cc2)C(CCC(=O)O)OC1=O (centres unmarked) | log10 IC50 | -0.82 |
| CCCCCOC1=C(c2ccccc2)C(CCC(=O)O)OC1=O (centres unmarked) | log10 IC50 | -1.30 |

Hi, could you look up log10 IC50 for each item in my list?
1. CCOC1=C(c2ccccc2)C(CCC(=O)O)OC1=O (centres unmarked)
2. COC1=C(c2ccccc2)C(CCC(=O)O)OC1=O (centres unmarked)
3. O=C(O)CCC1OC(=O)C(O)=C1c1ccccc1 (single isomer, unassigned) [Example 30-2]

Result:
[-0.70, -0.66, 0.40]

----------
- TEST_TARGET: aldose reductase (Oryctolagus cuniculus, UniProt P15122)
- Construct: The lenses were homogenized with 3 volumes of distilled water at 4° C; from tissue; host or cells: rabbit lens (homogenate, 10,000 G supernatant, dialysed)
- PROCEDURE_SUMMARY: Aldose reductase-inhibiting activity, enzymatic assay (decrease in NADPH, D,L-glyceraldehyde substrate, rabbit lens enzyme solution)
- Format: biochemical
- ASSAY_CONDITIONS: IC50 (M), concentration at which the aldose reductase activity is inhibited by 50%, pH 6.2, 35° C., 2 minutes
ENDPOINT: IC50
Quote the value and follow it with the unit of measurement.

For reference, reported IC50 for COC1=C(c2cccc(C(F)(F)F)c2)C(CCC(=O)O)OC1=O (stereo not shown) stands at 4.8e-07 M
